I'd appreciate it if you could supply Weight of mice at day 30 values for the items below.
- System: Human colon cancer cells (LS174J)
- measurement description: Human colon cancer xenograft in nude mice
- condition set: in vivo
// print number alone

The molecule listed as CN(C)CCCC(=O)OC1=C(C(=O)Nc2nccs2)N(C)S(=O)(=O)c2ccccc21.Cl shows Weight of mice at day 30 equal to 23

The molecule listed as CCN(CC)CCOC(=O)c1ccccc1Nc1cccc(C)c1C.Cl shows Weight of mice at day 30 equal to 23

The molecule listed as CC(C(=O)OCCCN1CCCC1)c1cccc(C(=O)c2ccccc2)c1.Cl (stereo not drawn) shows Weight of mice at day 30 equal to 23
